# target or system: human CXCR3 (N-delta 4) (Homo sapiens, UniProt P49682)
# Construct: CD8 leader; Flag tag; expressed in transfected cells; membranes used
# Sequence (P49682 5-368 limits assumed): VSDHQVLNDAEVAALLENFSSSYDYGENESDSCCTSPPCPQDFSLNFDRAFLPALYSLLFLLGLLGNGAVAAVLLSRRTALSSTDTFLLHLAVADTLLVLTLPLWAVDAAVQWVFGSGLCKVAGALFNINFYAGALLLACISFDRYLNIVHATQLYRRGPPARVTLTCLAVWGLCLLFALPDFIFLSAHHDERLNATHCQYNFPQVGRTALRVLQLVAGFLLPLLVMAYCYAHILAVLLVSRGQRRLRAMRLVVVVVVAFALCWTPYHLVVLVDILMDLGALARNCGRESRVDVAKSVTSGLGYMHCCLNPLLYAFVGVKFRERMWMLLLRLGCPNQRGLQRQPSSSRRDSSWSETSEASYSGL
# procedure summary: Human CXCR3 (N-delta 4) scintillation proximity assay (SPA), [125I] IP-10 binding
# condition context: IC50 rating; Ba/F3-hCXCR3 (N-delta 4) membranes, 25 pM [125I] IP-10
pIC50: −log10 of the molar value.
readout type: pIC50

In [3]: df
Out[3]:
                                   compound        result
0  CCNC(=O)c1cnc(N2CCN(C3CCN([C@@H](CC)c4ccc(Cl)cc4)CC3)[C@@H](C)C2)c(Cl)c1 [compound 344]        < 7.00
1  O=C(NCc1ccc(F)cc1)c1cnc(N2CCN(C3CCN(Cc4ccc(Cl)cc4)CC3)CC2)c(Cl)c1 [compound 297]  7.00 to 7.60
2  O=C(NCc1ccc(F)c(Cl)c1)c1cnc(N2CCN(C3CCN(Cc4ccc(F)c(F)c4)CC3)CC2)c(Cl)c1 [compound 154]  7.00 to 7.60
3  COC(=O)c1ccc(N2C[C@H](C)N(C3CCN(Cc4ccc(Cl)cc4F)CC3)C[C@H]2C)nc1 [compound 456]        < 7.00
4  N#Cc1ccc(CN2CCC(N3CCN(c4ncc(C(=O)NCc5cccc(F)c5)cc4Cl)CC3)CC2)cc1 [compound 61]        < 7.00
5  CC(NC(=O)c1cnc(N2CCN(C3CCN(Cc4ccc(Cl)cc4)CC3)CC2)c(Cl)c1)c1ccccc1 (stereo not shown) [compound 104]  7.00 to 7.60

Lab note: next compound to report on.
Any idea what pIC50 was measured for COc1ccc(CN2CCC(N3CCN(c4ncc(C(=O)NCc5ccc(Cl)cc5)cc4Cl)CC3)CC2)cc1 [compound 103] ?
7.00 to 7.60

====

# target or system: human CXCR3 (N-delta 4) (Homo sapiens)
# Construct: CD8 leader; Flag tag; expressed in transfected cells; membranes used
# procedure summary: Human CXCR3 (N-delta 4) scintillation proximity assay (SPA), [125I] IP-10 binding
# condition context: IC50 rating; Ba/F3-hCXCR3 (N-delta 4) membranes, 25 pM [125I] IP-10
# Source text: The inventive compounds can readily be evaluated to determine activity at the CXCR3 receptors by known methods, such as, for example, development of a human CXCR3 (N-delta 4) Binding Assay. Cloning and expression of human CXCR3 (N-delta 4): The DNA encoding human CXCR3 was cloned by PCR using human genomic DNA (Promega, Madison, Wis.) as a template. […]
pIC50: −log10 of the molar value.
Known pIC50 of a selection of compounds

Before answering, review these 3 worked examples.
>>> df
                                   compound        result
0  CC[C@H]1CN(c2ncc(C(=O)NC3CC3)cc2Cl)CCN1C1CCN(Cc2ccc(F)cc2C(F)(F)F)CC1  7.00 to 7.60
1  CC[C@H]1CN(c2ncc(COC(=O)Nc3ccc(F)cc3)cc2Cl)CCN1C1CCN(Cc2ccc(Cl)cc2F)CC1  7.00 to 7.60
2  CC[C@H]1CN(c2ncc(CNS(=O)(=O)C(F)(F)F)cc2Cl)CCN1C1CCN(Cc2ccc(Cl)cc2F)CC1        < 7.00

Any idea what pIC50 was measured for `CC[C@H]1CN(c2ncc(CNC(=O)Nc3c(C)noc3C)cc2Cl)CCN1C1CCN(Cc2ccc(Cl)cc2F)CC1` ?
7.00 to 7.60

Quick one: CCNC(=O)c1cnc(N2CCN(C3CCN(C(CC)c4ccc(Cl)cc4)CC3)[C@@H](C)C2)c(Cl)c1 (stereo partly shown)
< 7.00

Quick one: `O=C(NCc1ccc(F)c(Cl)c1)c1cnc(N2CCN(C3CCN(Cc4ccc(F)cc4)CC3)CC2)c(Cl)c1`
7.00 to 7.60

Quick one: `CC[C@H]1CN(c2ncc(C(N)=O)cc2Cl)CCN1C1CCN(C(=O)c2ccc(Cl)cc2)CC1`
< 7.00

====

# target or system: human CXCR3 (N-delta 4) (Homo sapiens, UniProt P49682)
# Construct: CD8 leader; Flag tag; expressed in transfected cells; membranes used
# procedure summary: Human CXCR3 (N-delta 4) scintillation proximity assay (SPA), [125I] IP-10 binding
# condition context: IC50 rating; Ba/F3-hCXCR3 (N-delta 4) membranes, 25 pM [125I] IP-10
pIC50: −log10 of the molar value.
Known pIC50 of a selection of compounds

Before answering, review these 5 worked examples.
>>> print(df.to_string())
                                   compound  readout_type        result
0  O=C(NCc1cccc(F)c1)c1cnc(N2CCN(C3CCN(Cc4ccc(F)cc4F)CC3)CC2)c(Cl)c1 [compound 8]         pIC50        < 7.00
1  O=C(NCc1cccc(F)c1)c1cnc(N2CCN(C3CCN(Cc4ccc(Br)cc4)CC3)CC2)c(Cl)c1 [compound 100]         pIC50  7.00 to 7.60
2  CC[C@H]1CN(c2ncc(CNS(=O)(=O)N(C)C)cc2Cl)CCN1C1CCN(Cc2ccc(Br)cc2F)CC1 [compound 384]         pIC50        > 7.60
3  CC[C@H]1CN(c2ncc(C(=O)NCc3ccc(F)c(F)c3)cc2Cl)CCN1C1CCN(Cc2ccc(Cl)cc2)CC1 [compound 221]         pIC50        > 7.60
4  O=C(NCc1ccc(Cl)c(Cl)c1)c1cnc(N2CCN(C3CCN(Cc4ccc(F)c(F)c4)CC3)CC2)c(Cl)c1 [compound 147]         pIC50  7.00 to 7.60

Lab note: next compound to report on.
Any idea what pIC50 was measured for O=C(NCc1ccccc1)c1cnc(N2CCN(C3CCN(Cc4ccc([N+](=O)[O-])cc4)CC3)CC2)c(Cl)c1 [compound 75] ?
< 7.00

====

# target or system: human CXCR3 (N-delta 4) (Homo sapiens, UniProt P49682)
# Construct: CD8 leader; Flag tag; expressed in transfected cells; membranes used
# procedure summary: Human CXCR3 (N-delta 4) scintillation proximity assay (SPA), [125I] IP-10 binding
# condition context: IC50 rating; Ba/F3-hCXCR3 (N-delta 4) membranes, 25 pM [125I] IP-10
pIC50: −log10 of the molar value.
Known pIC50 of a selection of compounds

Before answering, review these 6 worked examples.
                                   molecule  readout_type        result
0  CNC(=O)c1cnc(N2CCN(C3CCN(/C(=N\C#N)c4ccc(Cl)cc4)CC3)[C@@H](C)C2)c(Cl)c1         pIC50        < 7.00
1  O=C(NCc1ccc(F)c(F)c1)c1cnc(N2CCN(C3CCN(Cc4ccccc4)CC3)CC2)c(Cl)c1         pIC50        < 7.00
2  CC[C@H]1CN(c2ncc(C(C)(C)O)cc2Cl)CCN1C1CCN(Cc2ccc(Cl)cc2F)CC1         pIC50        < 7.00
3  CNC(=O)c1cnc(N2CCN(C3CCN(Cc4ccc(Cl)cc4)CC3)[C@@H](CC(C)C)C2)c(Cl)c1         pIC50        < 7.00
4  O=C(NCc1cccc(F)c1)c1cnc(N2CCN(C3CCN(Cc4ccc([N+](=O)[O-])cc4)CC3)CC2)c(Cl)c1         pIC50  7.00 to 7.60
5  CC[C@H]1CN(c2ncc(C(=O)NCCN)cc2Cl)CCN1C1CCN(Cc2ccc(Cl)cc2F)CC1         pIC50  7.00 to 7.60

Lab note: next compound to report on.
Reported pIC50 for human CXCR3 (N-delta 4) (Homo sapiens, UniProt P49682), given `CC[C@H]1CN(c2ncc(CNc3nccs3)cc2Cl)CCN1C1CCN(Cc2ccc(Cl)cc2F)CC1` ?
> 7.60

====

# target or system: human CXCR3 (N-delta 4) (Homo sapiens)
# Construct: CD8 leader; Flag tag; expressed in transfected cells; membranes used
# procedure summary: Human CXCR3 (N-delta 4) scintillation proximity assay (SPA), [125I] IP-10 binding
# condition context: IC50 rating; Ba/F3-hCXCR3 (N-delta 4) membranes, 25 pM [125I] IP-10
pIC50: −log10 of the molar value.
Known pIC50 of a selection of compounds

Before answering, review these 5 worked examples.
>>> df
                                   compound  readout_type        result
0  CC[C@H]1CN(c2ncc(CO)cc2Cl)CCN1C1CCN(C(=O)c2ccccc2)CC1         pIC50        < 7.00
1  CC1CN(c2ncc(C(=O)NCc3ccc(Cl)c(Cl)c3)cc2Cl)CCN1C1CCN(Cc2ccc([N+](=O)[O-])cc2)CC1 (stereo not shown)         pIC50        > 7.60
2  O=C(NCc1ccccc1)c1cnc(N2CCN(C3CCN(Cc4ccc(Cl)c(F)c4)CC3)CC2)c(Cl)c1         pIC50        < 7.00
3  O=C(NCc1ccc(Br)cc1)c1cnc(N2CCN(C3CCN(Cc4ccc(Br)cc4)CC3)CC2)c(Cl)c1         pIC50  7.00 to 7.60
4  O=C(NCCOc1ccccc1)c1cnc(N2CCN(C3CCN(Cc4ccc(Br)cc4F)CC3)CC2)c(Cl)c1         pIC50        < 7.00

Any idea what pIC50 was measured for `O=C(NCc1cccc(Cl)c1)c1cnc(N2CCN(C3CCN(Cc4ccc(Cl)c(F)c4)CC3)CC2)c(Cl)c1` ?
< 7.00

Quick one: `CCNC(=O)c1cnc(N2C[C@H](CC)N(C3CCN(Cc4ccc(Cl)cc4F)CC3)C[C@H]2C)c(Cl)c1`
> 7.60
